In this section we review reported pKd values for a set of binders.
# TGT: MAGI2_2, Q86UL8
# Sequence (Q86UL8 410-522): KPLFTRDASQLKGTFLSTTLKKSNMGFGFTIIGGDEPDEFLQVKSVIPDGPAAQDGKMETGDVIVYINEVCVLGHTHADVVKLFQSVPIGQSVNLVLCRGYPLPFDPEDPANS
# ASSAY OVERVIEW: holdup assay
# Set-up: key: below the threshold = too weak to quantify, mostly under pKd 3.1 to 4
# ASSAY CONDITIONS: plain residues with an end cap or a label only (N-terminal biotin on a linker: ttds)
// return just the number, without any unit appended

BINDER	MEASURED PARAMETER	ASSAY VALUE
RHTTSTETAV [HPV30-E6, P36809]	pKd	5.04

Any idea what pKd was measured for PRVKPQRSKV [PPP1R13L, Q8WUF5] ?
3.79

Please give the measured pKd for this binder: SGSRPSATVV [HPV73-E6, Q82005]
4.19

Could you share which pKd value was measured for SSLQSLETSV [ATP2B4, P23634] ?
4.49
